# TESTED_SYSTEM: HSP90α (Homo sapiens, UniProt P07900)
# Construct: gene HSP90AA1; N-terminal domain
# MEASUREMENT_PROTOCOL: fluorescence polarisation competition with FITC-geldanamycin (BPS kit #[…])
# Format: binding
READOUT_TYPE: pIC50
Bear in mind: pIC50 is minus log10 of a mol/L concentration; give just that figure.

// lookup pIC50 for Oc1ccc(-c2cnc(OCc3ccccc3)nc2OCc2ccccc2)cc1 [22k] 6.68

====

# TESTED_SYSTEM: HSP90α (Homo sapiens, UniProt P07900)
# Construct: gene HSP90AA1; N-terminal domain
# MEASUREMENT_PROTOCOL: biochemical
# Parameters: fluorescence polarisation competition with FITC-labelled geldanamycin on HSP90α N-terminal domain (BPS kit 50293)
# CONDITION_SUMMARY: read-out: FP IC50
READOUT_TYPE: pIC50
In simple prose, pIC50 is minus the logarithm base ten of a concentration in moles per litre.

Which pIC50 value belongs to Cc1ccc(-c2cn(Cc3ccccc3)c(-c3ccc(Cl)cc3)n2)cc1 [16j] ? 6.21

Fill blank: measured pIC50 of the compound Oc1cccc(-c2cnc(OCc3ccccc3)nc2OCc2ccccc2)c1 [22l] is ____. 6.24

Need pIC50, item Clc1ccc(-c2nc(-c3cccc(Cl)c3)cn2Cc2ccccc2)cc1 [16m] 6.21

Entry Clc1ccc(-c2cn(Cc3ccccc3)c(-c3ccc(Cl)cc3)n2)cc1 [16l] has what pIC50? 6.24
